- tested system: T1, 4H730-bH
- T1 chain: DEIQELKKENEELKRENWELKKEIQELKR
- assay info: two-hybrid library CCNG1;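 further: natural log of median RNA to DNA barcode read ratio; higher means stronger binding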
measure: interaction score

{"binder": "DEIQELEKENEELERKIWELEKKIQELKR [4H166-bH]", "measure": "interaction score", "observed result": 0.00471}
{"binder": "DKNQELEKENEELKRKIWELEKEIQELER [4H3297-bH]", "measure": "interaction score", "observed result": -0.0968}
{"binder": "DKNQELEKKIEELERKIWELEKENQELKR [4H3364-bH]", "measure": "interaction score", "observed result": -0.811}
{"binder": "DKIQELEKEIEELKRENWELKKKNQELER [4H2143-bH]", "measure": "interaction score", "observed result": -0.835}
{"binder": "DEIQELKKENEELKRENWELKKEIQELKR [4H730-bH]", "measure": "interaction score", "observed result": 1.5}
{"binder": "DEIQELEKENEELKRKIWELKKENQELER [4H235-bH]", "measure": "interaction score", "observed result": -0.176}
{"binder": "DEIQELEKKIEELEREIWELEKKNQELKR [4H264-bH]", "measure": "interaction score", "observed result": 0.131}

Source of measurements: paper PMC10397247
